Test system: MCF10A cells
Assay: Cell Titer-Glo 3D cell viability assay, 48 h, MCF10A
Format: cell-based
Conditions: Homo sapiens, MCF-10A; read-out: MCF10 IC50 Reached
Experimental: Cell Culture: Cell viability was assessed using the MCF7 and MCF10A cell lines. Cells were maintained in relevant media throughout the study, in an incubator set to 37°C and 5% CO2, with media changes every 2–3 days. […] Compound plate preparation: […] Plates were sealed and stored at −4°C prior to use. […] Luminescence signal was measured using a CLARIOstar Plus microplate reader (BMG Labtech). Data Analysis: Raw relative luminescence unit (RLU) data were de-randomised prior to background subtraction. […]
For each of the molecules below, state its IC50.

Here are 4 molecules together with their reported answers.
[
  {
    "query-smiles": "Cc1cc([C@@H](C)Nc2ccccc2C(=O)O)c2nc(N3CCOCC3)cc(=O)n2c1",
    "result": "> 2.5 µM"
  },
  {
    "query-smiles": "Nc1nc2[nH]cc(CCc3ccc(C(=O)N[C@@H](CCC(=O)O)C(=O)O)cc3)c2c(=O)[nH]1",
    "result": "> 2.5 µM"
  },
  {
    "query-smiles": "Nc1ccn([C@@H]2O[C@H](CO)[C@@H](O)[C@@H]2O)c(=O)n1",
    "result": "> 2.5 µM"
  },
  {
    "query-smiles": "Nc1ccn([C@@H]2O[C@H](CO)[C@@H](O)C2(F)F)c(=O)n1",
    "result": "< 2.5 µM"
  }
]

Attention now turns to another entry.
Q: Which IC50 value belongs to NS(=O)(=O)OC[C@@H]1C[C@@H](n2ccc3c(N[C@H]4CCc5ccccc54)ncnc32)C[C@@H]1O ?
A: > 2.5 µM
